- system_name: UniProt P08482
- Sequence (P08482 whole entry Y381A, looked up): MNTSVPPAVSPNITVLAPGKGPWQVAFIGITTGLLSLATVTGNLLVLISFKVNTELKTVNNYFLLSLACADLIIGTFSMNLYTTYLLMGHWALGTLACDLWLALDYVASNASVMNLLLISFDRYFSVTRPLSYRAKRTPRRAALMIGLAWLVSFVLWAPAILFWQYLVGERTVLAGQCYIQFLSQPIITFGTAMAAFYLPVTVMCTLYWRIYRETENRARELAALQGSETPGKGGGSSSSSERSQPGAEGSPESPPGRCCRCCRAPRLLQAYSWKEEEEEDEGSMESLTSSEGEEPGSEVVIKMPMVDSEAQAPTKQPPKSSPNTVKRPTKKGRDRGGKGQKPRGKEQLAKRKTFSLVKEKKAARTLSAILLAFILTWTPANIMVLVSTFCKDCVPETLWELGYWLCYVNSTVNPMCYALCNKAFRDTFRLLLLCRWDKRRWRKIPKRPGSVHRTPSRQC
- assay_procedure: M1 Y381A mutant agonism, calcium flux – cell-based, rat, CHO-K1, mechanism study for M1 allosteric modulator project (AID 1743)
- condition_notes: Fluo-4 calcium flux
measurement_kind: EC50

For this compound ( "CCOC(=O)N1CCC(NCCNC(=O)c2ccccc2C)CC1" ), measured EC50 is 379 nM

What the record says about "CCOC(=O)N1CCC(NCCNC(=O)c2ccccc2)CC1" : EC50 is 304 nM

Summary for this compound, "CCOC(=O)N1CCC(NCCNC(=O)c2cccs2)CC1" : EC50 is 1230 nM
